biological target: HIV-1 YU-2 gp120 (HIV-1 (YU-2), UniProt P35961); assay: SPR
Property: IC50

Supply measured IC50 of Fab m18 Y33A (HCDR1) (Fab, V domains shown) VH: VQLLESGPGVVKPSETLSLTCTVSGASVNNYAWTWVRQPPGKGLEWIGNVYDSGDTNYNPSLSSRLSLSMDTSKNQFSLRLSSVTAADTATYYCARYHRHFIRGPLSFDYWGRGTLVTVSS VL: LQMTQSPSFLSASVGDRVSITCRASQDIQKFLAWYQLTPGDAPKLLMYSASTLQSGVPSRFSGSGSGTEFTLTISGLQPEDFATYYCQHLKRYPYTFGQGTKLEIS in your reply. 150 nM

Provide measured IC50 value, entry: Fab m18 R24A (LCDR1) (Fab, V domains shown) VH: VQLLESGPGVVKPSETLSLTCTVSGASVNNYYWTWVRQPPGKGLEWIGNVYDSGDTNYNPSLSSRLSLSMDTSKNQFSLRLSSVTAADTATYYCARYHRHFIRGPLSFDYWGRGTLVTVSS VL: LQMTQSPSFLSASVGDRVSITCAASQDIQKFLAWYQLTPGDAPKLLMYSASTLQSGVPSRFSGSGSGTEFTLTISGLQPEDFATYYCQHLKRYPYTFGQGTKLEIS > 1000 nM

For Fab m18 S64A (HCDR2) (Fab, V domains shown) VH: VQLLESGPGVVKPSETLSLTCTVSGASVNNYYWTWVRQPPGKGLEWIGNVYDSGDTNYNPSLASRLSLSMDTSKNQFSLRLSSVTAADTATYYCARYHRHFIRGPLSFDYWGRGTLVTVSS VL: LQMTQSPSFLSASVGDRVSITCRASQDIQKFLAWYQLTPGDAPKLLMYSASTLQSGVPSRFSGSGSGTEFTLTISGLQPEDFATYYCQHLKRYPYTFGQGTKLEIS , write its IC50. > 1000 nM
